Target: PKR R532W (Homo sapiens, UniProt P30613, R532W)
Sequence (P30613 whole entry R532W): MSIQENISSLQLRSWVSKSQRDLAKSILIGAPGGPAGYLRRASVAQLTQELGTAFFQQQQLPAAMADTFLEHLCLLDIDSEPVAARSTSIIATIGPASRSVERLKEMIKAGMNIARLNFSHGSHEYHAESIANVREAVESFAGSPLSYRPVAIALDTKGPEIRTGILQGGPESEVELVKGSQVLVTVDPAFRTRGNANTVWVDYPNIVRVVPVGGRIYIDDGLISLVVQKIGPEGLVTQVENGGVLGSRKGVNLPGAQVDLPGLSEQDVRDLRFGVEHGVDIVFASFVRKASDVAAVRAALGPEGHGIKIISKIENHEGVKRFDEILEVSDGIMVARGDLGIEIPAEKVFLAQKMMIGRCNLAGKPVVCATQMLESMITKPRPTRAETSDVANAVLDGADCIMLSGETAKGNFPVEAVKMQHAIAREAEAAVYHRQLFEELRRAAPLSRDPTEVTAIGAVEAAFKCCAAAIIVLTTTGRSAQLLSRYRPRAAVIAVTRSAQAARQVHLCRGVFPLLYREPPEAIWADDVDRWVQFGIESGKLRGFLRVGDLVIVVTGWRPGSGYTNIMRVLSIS
Experiment: PKR R532W Single Point Percent Activation Assay
Assay type: biochemical
Conditions: read-out: Act, % 532W
endpoint.name: activation at 1 µM

In the examples that follow, each entry is paired with its recorded activation at 1 µM.
C[C@@H]1CN(Cc2cc(F)c(F)cc2F)CCN1C(=O)c1ccc(NS(=O)(=O)c2cccc3cccnc23)cc1 :: 1 to 100%
CC(C)OC(=O)N1CCN(C(=O)c2ccc(NS(=O)(=O)c3cccc4cccnc34)cc2)[C@H](C)C1 :: 101 to 500%
CC(C)OC(=O)N1CCN(C(=O)c2ccc(NS(=O)(=O)c3cccc4cccnc34)cc2)[C@@H](C)C1 :: 101 to 500%

Hello, please tell me recorded activation at 1 µM for this one: C[C@@H]1CN(C(=O)OCC2CCCO2)CCN1C(=O)c1ccc(NS(=O)(=O)c2cccc3cccnc23)cc1 (some centres unmarked)
1 to 100%

Hello, please tell me recorded activation at 1 µM for this one: C[C@@H]1CN(CC2CCCO2)CCN1C(=O)c1ccc(NS(=O)(=O)c2cccc3cccnc23)cc1 (some centres unmarked)
101 to 500%

Hello, please tell me recorded activation at 1 µM for this one: CC[C@H]1CN(Cc2cc(F)cc(F)c2)CCN1C(=O)c1ccc(NS(=O)(=O)c2cccc3cccnc23)cc1
101 to 500%

Hello, please tell me recorded activation at 1 µM for this one: C[C@H]1CN(Cc2ccccc2)CCN1C(=O)c1ccc(NS(=O)(=O)c2cccc3cccnc23)cc1
101 to 500%

Hello, please tell me recorded activation at 1 µM for this one: C[C@@H]1CN(CC2CCC2)CCN1C(=O)c1ccc(NS(=O)(=O)c2cccc3cccnc23)cc1
101 to 500%
